- System under test: OsWRKY34 (Oryza sativa, UniProt Q0JBA9 1-250)
- Sequence (Q0JBA9 entry or part of it): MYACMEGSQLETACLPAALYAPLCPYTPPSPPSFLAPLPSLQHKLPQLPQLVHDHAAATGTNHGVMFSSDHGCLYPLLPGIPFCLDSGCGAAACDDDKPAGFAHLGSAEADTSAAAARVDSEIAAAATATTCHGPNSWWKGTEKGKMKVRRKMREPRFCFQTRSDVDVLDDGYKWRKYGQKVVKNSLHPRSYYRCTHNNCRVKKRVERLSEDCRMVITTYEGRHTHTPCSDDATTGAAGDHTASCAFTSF
- Assay details: protein-binding microarray (RPBM); PBS, 2% BSA, 51.3 ng/ul salmon testes DNA, 50 uM zinc acetate, 200 nM TF, 25 C, 1 h; high values mean tight binding
- Experimental setup: protein: recombinant; tags: N-terminal polyhistidine and DsRed monomer fusion (pET32a); label: CyDye5-dUTP incorporated in the synthesized complementary strand; 3' TTTTT single-stranded linker to array surface; dsDNA, one strand shown
In all, about 68,000 sequences were measured (“fluorescence intensity (a.u.)”: median about 9,100, highest 2% from about 16,000 on). The full list was thinned out, with the highest values kept by preference.
Assay endpoint: binding signal

[in] Return binding signal (reported value) for this sequence: CGCTCTCTTGTTGACCACCTCGCGTTGCACTGGGCCAGCCCGGAGTCACCTAGTGCAG
[out] 9490 fluorescence intensity (a.u.)

[in] Provide one value: measured binding signal of TCTCCTATCCAGTTGGATTCCCAAAATTTCGCCTTTCGTCCGGAGTCACCTAGTGCAG
[out] 8070 fluorescence intensity (a.u.)

[in] Check the records and state binding signal for GCGTGCTAAACCCTTGTGATCCGTGTATTTAACCACCTTCCGGAGTCACCTAGTGCAG
[out] 11700 fluorescence intensity (a.u.)

[in] Please report the measured binding signal for ATGTTTGACGCTGTTGACTTTTTTAAACATATTTGACTCTCGGAGTCACCTAGTGCAG
[out] 21500 fluorescence intensity (a.u.)
